Target: human P2X2/3 receptor (Homo sapiens, UniProt P56373+Q9UBL9)
Construct: expressed in transfected cells; host or cells: CHO-K1
Sequence (Q9UBL9 1-471): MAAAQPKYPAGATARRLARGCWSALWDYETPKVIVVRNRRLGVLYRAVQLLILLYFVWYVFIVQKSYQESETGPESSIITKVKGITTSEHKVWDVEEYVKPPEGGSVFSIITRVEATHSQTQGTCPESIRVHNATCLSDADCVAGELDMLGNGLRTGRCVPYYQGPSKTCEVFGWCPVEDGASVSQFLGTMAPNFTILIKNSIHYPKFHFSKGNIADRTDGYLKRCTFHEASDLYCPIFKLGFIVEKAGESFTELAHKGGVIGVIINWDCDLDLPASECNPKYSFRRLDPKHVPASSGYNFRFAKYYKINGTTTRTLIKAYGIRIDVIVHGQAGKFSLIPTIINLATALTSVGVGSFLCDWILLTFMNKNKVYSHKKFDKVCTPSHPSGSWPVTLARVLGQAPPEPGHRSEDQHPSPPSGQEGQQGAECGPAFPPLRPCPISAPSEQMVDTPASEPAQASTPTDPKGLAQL
Sequence (P56373 1-397): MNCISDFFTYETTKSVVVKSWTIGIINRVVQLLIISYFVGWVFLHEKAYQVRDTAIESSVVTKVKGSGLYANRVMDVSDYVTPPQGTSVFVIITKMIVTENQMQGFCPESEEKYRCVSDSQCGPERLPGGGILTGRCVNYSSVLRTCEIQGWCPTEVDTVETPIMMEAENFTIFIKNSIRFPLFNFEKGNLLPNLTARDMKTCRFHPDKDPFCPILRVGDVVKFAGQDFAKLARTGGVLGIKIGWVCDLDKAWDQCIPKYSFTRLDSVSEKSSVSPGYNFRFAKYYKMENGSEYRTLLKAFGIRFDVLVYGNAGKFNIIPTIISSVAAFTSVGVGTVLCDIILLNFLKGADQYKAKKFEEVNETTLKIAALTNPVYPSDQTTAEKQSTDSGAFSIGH
Assay: P2X2/3 FLIPR (Fluorometric Imaging Plate Reader) assay
Assay type: cell-based
Conditions: CHO-K1 cells transfected with human P2X2/3; agonist α,β-meATP 5 μM; FLIPR calcium fluorescence; read-out: pKi P2X2/3 (converted)
Threshold 80 nM: Ki strictly smaller gives TRUE, otherwise FALSE.

Some entries whose results are on file:
1. Cc1ccc(-c2cc(C(=O)NC3CC3)cc(N3C(=O)OC[C@H]3C(C)C)c2)cc1	FALSE
2. Cc1ccc(-c2cc(C(=O)NCc3cnc(C)cn3)cc(N3C(=O)Cc4ccccc43)c2)cc1	FALSE
3. Cc1ccc(-c2cc(C(=O)NC3CC3)cc(N3C(=O)OC[C@H]3C(C)C)c2)nc1	FALSE

# strict comparison: is reported Ki < 80 nM? input = "Cc1ccc(-c2cc(C(=O)NCc3ncc(C)cn3)cc(-n3c(=O)oc4ccccc43)c2)nc1" TRUE

Can you handle "Cc1ccc(-c2cc(C(=O)NCc3cnc(C)cn3)cc(N3C(=O)OCC34CC4)c2)nc1" next? FALSE

Can you handle Cc1ccc(-c2cc(C(=O)NC(C)c3cnccn3)cc(N3C(=O)OC[C@H]3C(C)C)c2)cc1 (some centres unmarked) next? TRUE

Can you handle "Cc1ccc(-c2cc(C(=O)NCc3cnc(C)cn3)cc(-n3c(=O)[nH]c4cncnc43)c2)nc1" next? TRUE

The measured values listed here are drawn from patent US8093275B2.
